# system.tested: P2X2 receptor (Rattus norvegicus)
# Sequence (P49653 whole entry): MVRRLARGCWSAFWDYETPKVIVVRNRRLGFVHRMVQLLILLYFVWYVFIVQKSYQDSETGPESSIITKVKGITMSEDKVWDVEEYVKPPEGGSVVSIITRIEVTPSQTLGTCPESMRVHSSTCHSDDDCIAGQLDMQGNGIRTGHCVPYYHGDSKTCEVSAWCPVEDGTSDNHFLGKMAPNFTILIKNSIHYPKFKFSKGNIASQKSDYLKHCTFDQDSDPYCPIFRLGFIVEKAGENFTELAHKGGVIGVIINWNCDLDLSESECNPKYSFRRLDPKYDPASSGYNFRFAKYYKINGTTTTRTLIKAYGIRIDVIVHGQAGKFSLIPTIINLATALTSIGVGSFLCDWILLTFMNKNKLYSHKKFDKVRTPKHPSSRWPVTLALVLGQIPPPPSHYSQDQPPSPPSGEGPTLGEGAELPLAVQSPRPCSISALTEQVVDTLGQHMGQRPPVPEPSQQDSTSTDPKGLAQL
# procedure.summary: outside-out patch clamp, peak current, 2-s ATP pulses
outcome.measure: pEC50
Please keep in mind that pEC50 is minus log10 of the molar concentration; only the number is needed.

Recorded result, Nc1ncnc2c1ncn2[C@@H]1O[C@H](COP(=O)(O)OP(=O)(O)OP(=O)(O)O)[C@@H](O)[C@H]1O [ATP] , pEC50: 5.01
